test: Solubility study of phosphate salt crystals in aqueous media at pH 1.2-6.8
Format: physicochemical
experimental-conditions: 50 mM phosphate buffer, pH 4, aqueous buffer, thermodynamic from solid, pH 4
Where a name gives a salt, the structure may show the parent alone.
quantity-kind: solubility

**Q:** Look at this compound and give its reported solubility. CN1C(=O)c2c(nn(Cc3ccc(-c4cccc(F)n4)cc3)c2Nc2ccccc2)N2C1=N[C@@H]1CCC[C@@H]12 [Phosphate salt]
**A:** ≤ 7700 µg/mL

* * *

test: Bridging study of monophosphate salt and free base in dog (plasma pharmacokinetics)
Format: in vivo
experimental-conditions: both sexes, po, 40 mg/kg, Mean, oral gavage
Where a name gives a salt, the structure may show the parent alone.
quantity-kind: AUC (ng·h/mL)
Numbers only, in ng·h/mL.

**Q:** # lookup: AUC of CN1C(=O)c2c(nn(Cc3ccc(-c4cccc(F)n4)cc3)c2Nc2ccccc2)N2C1=N[C@@H]1CCC[C@@H]12 [Phosphate salt]
**A:** 21300

* * *

test: Single rising dose clinical study (pharmacokinetic profile)
Format: in vivo
experimental-conditions: plasma; human; single oral dose 75 mg, aqueous solution; Mean (SD)
Where a name gives a salt, the structure may show the parent alone.
quantity-kind: Cmax (ng/mL)
Give bare numbers, in ng/mL.

**Q:** Request the reported Cmax associated with CN1C(=O)c2c(nn(Cc3ccc(-c4cccc(F)n4)cc3)c2Nc2ccccc2)N2C1=N[C@@H]1CCC[C@@H]12 [Phosphate salt]
**A:** 334
